Task for the reader: assign each of the following binders its reported EC50.
Target: T1, human CD25 on CHO-K1/hCD25 cells (human, UniProt P01589 22-272)
T1 construct: whole, on cells; The construct of the cell line is not described
T1 sequence (looked up): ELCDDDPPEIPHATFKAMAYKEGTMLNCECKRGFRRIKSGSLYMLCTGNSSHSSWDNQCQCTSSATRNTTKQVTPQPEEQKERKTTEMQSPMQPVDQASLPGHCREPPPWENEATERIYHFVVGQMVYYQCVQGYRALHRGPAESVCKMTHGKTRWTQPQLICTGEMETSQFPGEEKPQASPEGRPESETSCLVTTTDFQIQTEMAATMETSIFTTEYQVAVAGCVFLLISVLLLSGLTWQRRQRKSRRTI
Assay: flow cytometry on CHO-K1/hCD25 cells
API: value field is a number in ng/mL; no unit string.

query: Please give the measured EC50 for this binder: chimeric antibody 2046-111H2L1 (antibody, human IgG1, kappa, V domains shown, Chimeric, human IgG1/kappa) VH: DVQLQESGPGLVKPSQSLSLTCTVTGHSITSDYAWNWIRQFPGNKLEWMGYISYSGSTIYNPSLKSRISITRDTSKNQFFLQLNSVTTEDTATYYCARWLLQNYYAMDYWGQGTSVTVSS VL: DVVMTQTPLSLPVSLGDQASISCRSSQSLVHSNGNTYLHWYLRKPGQSPKLLIYKVSNRFSGVPDRFSGSGSGTDFTLKISRVEAEDLGVYFCSQSTHVPLTFGAGTKLELKR
result: 1.09

query: Further, for chimeric antibody 2046-18H1L1 (antibody, human IgG1, kappa, V domains shown, Chimeric, human IgG1/kappa; also called 2046-18ix) VH: DVQLQESGPGLVKPSQSLSLTCTVTGYSITSDYAWNWIRQFPGNKLEWMGYISYSGITIYNPSLKSRISITRDTSKNQFFLQLNSVTTEDTATYYCARWLLQIYYAMDYWGQGTSVTVSS VL: DVVMTQTPLSLPVSLGDQASISCSSSQSLVHSNGNTYLHWYLHKPGQSPKLLIYKVSNRFSGVPDRFSGSGSGTDFTLKISRVEAEDLGVYFCSQSTHVPLTFGAGTKLELKR ?
result: 1.71

query: Field entry: chimeric antibody 2047-10H1L2 (antibody, human IgG1, kappa, V domains shown, Chimeric, human IgG1/kappa; also called 2047-10ix) VH: QVQLQQSGPELVRPGVSVKISCKGSGYTFTDYAMHWVKQSHAKSLEWIGVISTYNGNTNYNQKFKGKATMTVDKSSSTAYMELARLTSEDSAIYYCARSYGNYPFDYWGQGTTLTVSS VL: DIKMTQSPSSMYASLGERVTITCKASQDINSYLSWFQQKPGKSPKTLIYRANRLVDGVPSRFSGSGSGQDYSLTISSLEYEDMGIYYCLQYDEFPYTFGGGTKLEIKR
result: 2.46
